Tested on: HepG2 cells
method: XTT cell viability assay with HepG2 cells
Type: cell-based, human
study conditions: Homo sapiens, HepG2, 24 h, read-out: HepG2 IC50
pIC50: −log10 of the molar value.
observable: pIC50

a = Cl.Nc1nc(-c2ccc3nc(-c4ccc(Cl)c(Cl)c4)[nH]c3c2)c[nH]1
b = Cl.Nc1nc(-c2ccc3nc(-c4ccc(Cl)c(C(F)(F)F)c4)[nH]c3c2)c[nH]1
Smaller pIC50 value, a vs b ? Indicate which entry you chose by stating its label. b
(b: 3.85, a: 4.13)

---

Test system: A. baumannii AB5075
# MIC listing for each entry below

{"columns": ["molecule", "target or test system", "MIC"],
 "data": [
  ["COc1cc(OC)cc(-c2nc3ccc(-c4c[nH]c(N)n4)cc3[nH]2)c1 [Compound 15]", "A. baumannii AB5075", "≥ 200 µM"]
]}

Provide the documented MIC with A. baumannii AB5075 as the system for Nc1nc(-c2ccc3nc(-c4cccc(Cl)c4)[nH]c3c2)c[nH]1 [Compound 8] ≥ 200 µM

Provide the documented MIC with A. baumannii AB5075 as the system for Cc1ccc(-c2nc3ccc(-c4c[nH]c(N)n4)cc3[nH]2)cc1C [Compound 17] ≥ 200 µM

Provide the documented MIC with A. baumannii AB5075 as the system for Nc1nc(-c2ccc3nc(-c4cc(Cl)ccc4Cl)[nH]c3c2)c[nH]1 [Compound 12] ≥ 200 µM

Provide the documented MIC with A. baumannii AB5075 as the system for Nc1nc(-c2ccc3nc(-c4cc(Cl)cc(Cl)c4)[nH]c3c2)c[nH]1 [Compound 2] > 200 µM

Provide the documented MIC with A. baumannii AB5075 as the system for Cl.Nc1nc(-c2ccc3nc(-c4ccc(Cl)c(C(F)(F)F)c4)[nH]c3c2)c[nH]1 [Compound 25] 50 µM

Provide the documented MIC with A. baumannii AB5075 as the system for Nc1nc(-c2ccc3nc(-c4ccccc4Cl)[nH]c3c2)c[nH]1 [Compound 9] ≥ 200 µM

Provide the documented MIC with A. baumannii AB5075 as the system for Nc1nc(-c2ccc3nc(-c4ccc(Cl)cc4)[nH]c3c2)c[nH]1 [Compound 7] ≥ 200 µM

Provide the documented MIC with A. baumannii AB5075 as the system for Cc1cc(C)cc(-c2nc3ccc(-c4c[nH]c(N)n4)cc3[nH]2)c1 [Compound 16] ≥ 200 µM

Provide the documented MIC with A. baumannii AB5075 as the system for Cl.Nc1nc(-c2ccc3nc(-c4ccc(Cl)c(Cl)c4)[nH]c3c2)c[nH]1 [Compound 5] ≥ 200 µM

Provide the documented MIC with A. baumannii AB5075 as the system for Nc1nc(-c2ccc3nc(-c4cccc(Cl)c4Cl)[nH]c3c2)c[nH]1 [Compound 10] ≥ 200 µM

Provide the documented MIC with A. baumannii AB5075 as the system for Nc1nc(-c2ccc3nc(-c4cc(Cl)c(Cl)c(Cl)c4)[nH]c3c2)c[nH]1 [Compound 6] ≥ 200 µM

Provide the documented MIC with A. baumannii AB5075 as the system for Nc1nc(-c2ccc3nc(-c4ccc(Cl)cc4Cl)[nH]c3c2)c[nH]1 [Compound 11] ≥ 200 µM

---

Reported values: MIC for A. baumannii AB19606, one per item.

{"columns": ["molecule smiles", "target or test system", "MIC"],
 "data": [
  ["Cl.Nc1nc(-c2ccc3nc(-c4ccc(Cl)c(Cl)c4)[nH]c3c2)c[nH]1", "A. baumannii AB19606", "≥ 200 µM"],
  ["COc1cc(OC)cc(-c2nc3ccc(-c4c[nH]c(N)n4)cc3[nH]2)c1", "A. baumannii AB19606", "≥ 200 µM"],
  ["Nc1nc(-c2ccc3nc(-c4cc(Cl)cc(Cl)c4)[nH]c3c2)c[nH]1", "A. baumannii AB19606", "> 200 µM"]
]}

Provide the documented MIC with A. baumannii AB19606 as the system for Cl.Nc1nc(-c2ccc3nc(-c4ccc(Cl)c(C(F)(F)F)c4)[nH]c3c2)c[nH]1 50 µM

Hello, the source for this data is paper PMC12366125, in case you need it.
